Biological target: T1, mouse GPRC5D (mouse, UniProt Q9JIL6 1-344)
T1 construct: whole, on cells; HEK293T-mGPRC5D cells; also called mGPRC5D; murine GPRC5D
T1 sequence (looked up): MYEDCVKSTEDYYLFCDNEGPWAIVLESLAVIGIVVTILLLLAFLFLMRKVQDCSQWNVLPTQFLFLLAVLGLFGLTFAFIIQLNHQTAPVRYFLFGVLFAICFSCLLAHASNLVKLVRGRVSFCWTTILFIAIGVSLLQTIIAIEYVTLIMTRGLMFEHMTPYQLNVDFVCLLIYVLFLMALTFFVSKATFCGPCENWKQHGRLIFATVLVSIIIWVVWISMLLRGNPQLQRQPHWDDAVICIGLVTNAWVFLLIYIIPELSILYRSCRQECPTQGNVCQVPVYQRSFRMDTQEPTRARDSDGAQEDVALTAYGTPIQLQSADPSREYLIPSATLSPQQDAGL
Experiment: FACS, HEK293T-mGPRC5D cells; also: test concentration or dose not given here
measurement-type: % Positive (%)
The response must be a number in % with no trailing unit.

Solved entries:
binder: 26E2H6 (antibody, V domains shown, Mouse monoclonal antibody from hybridoma subclone) VH: EVQLVESGGDLVKPGGSLKLSCAASGFTFSSYGMSWVRQTPDKRLEWVATISSGGSYTYYPDSVKGRFTISRDNAKNTLYLQMSSLKSEDTAMYYCARHATDYWGQGTTLTVSS VL: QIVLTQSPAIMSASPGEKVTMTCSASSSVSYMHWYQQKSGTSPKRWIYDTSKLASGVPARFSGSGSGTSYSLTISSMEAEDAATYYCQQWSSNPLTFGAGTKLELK
endpoint-unit: %
% Positive: 68.4
--
binder: 28H9C12 (antibody, V domains shown, Mouse monoclonal antibody from hybridoma subclone; also called 281H9C12) VH: EVQLVESGGGLVKPGGSLKLSCAASGFTFSDYGMHWVRQAPEKGLEWVAYISSGSSTIYYADTVKGRFTISRDNAKNTLFLQMTSLRSEDTAIYYCVRRPWYFDVWGTGTTVTVSS VL: DVLMTQTPLSLPVSLGDQASISCRSSQSIVHSNGNTYLQWYLQKPGQSPKLLIYKVSNRFSGVPDRFSGSGSGTDFTLKISRLEAEDLGVYYCFQGSHVPFTFGSGTKLEIK
endpoint-unit: %
% Positive: 1.6

// switching to the query binder
Return % Positive for the following binder: 15D6G2 (antibody, V domains shown, Mouse monoclonal antibody from hybridoma subclone) VH: EVQLVESGGDLVKPGGYLRLSCAASGFTFSSHGMSWVRQTPDKRLEWVATISSGGRNTYYPDSVKGRFTISRDNAKNILYLQMSSLKSEDTAMFYCTRHSGDAMDYWGQGTSVTVSS VL: DILLTQSPAILSVSPGERVSFSCRASQSIGTNIHWYQQRTNGSPRLLIKYASESISGIPSRFSGSGSGTDFTLSINSVESEDIADYYCQQSKSWPTFGGGTKLEIK
14.6
